# test_details: Plasma pharmacokinetics of vorinostat and metabolites
# Type: in vivo, human
# details: human, plasma, oral, 400 mg, Mean AUC, C1D1, patients with No DLT (16)
measurement_type: AUC
Report field: quantity (unit follows the number).

Entry under review: O=C(CCCCCCC(=O)Nc1ccccc1)NO [vorinostat, suberoylanilide hydroxamic acid] . Reported AUC?
999 ng·h/mL

====

# test_details: Plasma pharmacokinetics of vorinostat and metabolites
# Type: in vivo, human
# details: human, plasma, oral, 400 mg, Mean AUC, C1D1, patients with DLT (3)
measurement_type: AUC (ng·h/mL)
Report only the number, with the unit ng·h/mL understood.

Entry under review: O=C(CCCCCCC(=O)Nc1ccccc1)NO [vorinostat, suberoylanilide hydroxamic acid] . Reported AUC?
1450

====

# test_details: Plasma pharmacokinetics of vorinostat and metabolites
# Assay type: in vivo, human
# details: human, plasma, oral, Mean AUC, C1D2, patients with No DLT (16)
measurement_type: AUC
Report field: quantity (unit follows the number).

Entry under review: O=C(CCCCCCC(=O)Nc1ccccc1)NO [vorinostat, suberoylanilide hydroxamic acid] . Reported AUC?
983 ng·h/mL

====

# test_details: Plasma pharmacokinetics of vorinostat and metabolites
# Format: in vivo, human
# details: human, plasma, oral, Mean AUC, C1D12, patients with No DLT (13)
measurement_type: AUC
Report field: quantity (unit follows the number).

Entry under review: O=C(CCCCCCC(=O)Nc1ccccc1)NO [vorinostat, suberoylanilide hydroxamic acid] . Reported AUC?
1410 ng·h/mL

====

# test_details: Plasma pharmacokinetics of vorinostat and metabolites
# Assay type: in vivo, human
# details: human, plasma, oral, Mean AUC, C1D12, patient with DLT (1)
measurement_type: AUC (ng·h/mL)
Report only the number, with the unit ng·h/mL understood.

Entry under review: O=C(CCCCCCC(=O)Nc1ccccc1)NO [vorinostat, suberoylanilide hydroxamic acid] . Reported AUC?
2230

====

# test_details: Plasma pharmacokinetics of vorinostat and metabolites
# Type: in vivo, human
# details: human, plasma, oral, Cmax, C1D12, patients with No DLT (13)
measurement_type: Cmax (ng/mL)
Report only the number, with the unit ng/mL understood.

Entry under review: O=C(CCCCCCC(=O)Nc1ccccc1)NO [vorinostat, suberoylanilide hydroxamic acid] . Reported Cmax?
448

====

# test_details: Plasma pharmacokinetics of vorinostat and metabolites
# Format: in vivo, human
# details: human, plasma, oral, Cmax, C1D2, patients with DLT (3)
measurement_type: Cmax (ng/mL)
Report only the number, with the unit ng/mL understood.

Entry under review: O=C(CCCCCCC(=O)Nc1ccccc1)NO [vorinostat, suberoylanilide hydroxamic acid] . Reported Cmax?
675
